measurementTarget: E. coli Hsp70 (DnaK) (E. coli, UniProt P0A6Y8 1-638)
assayOverview: SPR
Measured Kd, listed per entry for reference.

binder: NRNNTG
Kd: 24.9 nM

The recorded Kd for entry ANNNMYRR equals 440 nM

The recorded Kd for entry ALLLMYRR equals 82 nM

The recorded Kd for entry NRLLTG equals 12.3 nM
